- Test system: HCC-2998 colon
- EXPERIMENTAL PROTOCOL: NCI-60 one-dose screen, 48 h
- TEST SETTINGS: 10 µM unless noted
Compounds without any hit were thinned out: in the full panel of roughly 83,000, 20% have a hit. Activity calls are given as the source filed them. The calls were made as follows: active = growth percent below 10; inactive = the rest.
Assign a class; possible classes are T for active, F for inactive

Answered cases to consult:
• CCCCCCCC/C=C\CCCCCCCCOc1cccc(CC(=O)NCC[N+]2(C)CCCC2)c1 = F
• Nc1cc2[nH]c(=O)c3ccccc3c2cc1Br = F
• NS(=O)(=O)c1ccc(C(=O)N/N=C(\CS(=O)(=O)c2ccccc2)c2cc3cc(Br)ccc3o2)cc1 = F
• FC(F)(F)Oc1ccc2c(c1)C[C@H]1C[C@@H](c3ccoc3)N2O1 = F
• O=C(CCc1nnc2sc(/C=C\c3ccccc3)nn12)c1nc2ccccc2[nH]1 = F
• Cc1cc(NS(=O)(=O)c2ccc(NC(=O)COc3ccc(-c4cc5ccccc5[nH]4)cc3)cc2)no1 = T
• COc1cc(C(=O)/C=C/c2c(-c3cccs3)nc3sccn23)cc(OC)c1OC = T
• COc1ccc(OC2=CC(=O)c3ccc(C)nc3C2=O)cc1 = F
• O=C1NC(=O)C2(CCCC2C(=O)O)N1 (stereo not given) = F

Field: next compound
Can you look up the reported call for CCOC(=O)c1cn2c3c(cc(F)cc3c1=O)C(CC)c1ccccc1C2 (stereo not given) for me? F

* * *

Recorded growth for the following molecules
- Tested on: MALME-3M melanoma
- EXPERIMENTAL PROTOCOL: NCI-60 one-dose screen, 48 h (100 = growth as untreated, 0 = no growth, -100 = all killed)
- TEST SETTINGS: 10 µM unless noted
This is part of a sample that, as a whole, favours compounds with a hit. Of some 83,000 tested, about 20% had one in any assay.
Output spec: scalar in %, unitless text.

Sample answers from the record:
* O=c1[nH]c(=S)c2c(n1CCCO)CCC2 | 92.9
* COc1ccc(NC(=O)c2ccc3c(c2)nc(-c2ccc(Cl)cc2)n3-c2cc(C(C)(C)C)[nH]n2)cc1 | 91.1
* NC(=O)c1cccc(-n2ccc3cc(NC(=O)Nc4ccc(Cl)c(Cl)c4)ccc32)n1 | 85
* CCCCCn1c(=N)n(CC(O)COc2cccc(C)c2)c2ccccc21 (stereo not drawn) | -6.7
* Cc1oc2c(c1C(=O)N1CC[C@@H](N)C1)C(=O)c1c(c(O)c3ccccc3c1O)C2=O | 53.2

Can you share its growth? I mean this molecule: COc1ccc(C2CC(c3cc(OC)c(OC)c(OC)c3)=NN2c2ccc(S(N)(=O)=O)cc2)cc1 (stereo not drawn) 101

Can you share its growth? I mean this molecule: COc1cc(CNCCCN2C(=O)c3ccc4c5c(ccc(c35)C2=O)C(=O)N(CCCNCc2cc(OC)c(OC)c(OC)c2)C4=O)cc(OC)c1OC -87.1

* * *

- System: DU-145 prostate
- EXPERIMENTAL PROTOCOL: NCI-60 one-dose screen, 48 h
- TEST SETTINGS: 10 µM unless noted
About 83,000 compounds went through this panel and 20% of them were active in at least one assay; those are over-represented in the sample as a whole. The source made the active and inactive calls. How the source made its calls: active means growth percent below 10; inactive means the rest.
Assign a class; possible classes are active, inactive

Answered cases to consult:
• O=C(C[Si](CC(=O)c1cccc(C(F)(F)F)c1)CC(=O)c1cccc(C(F)(F)F)c1)c1cccc(C(F)(F)F)c1 = inactive
• COc1cc(/C=C/c2cc(/C=C/c3ccc(O)c(OC)c3)n(-c3ccccc3)n2)ccc1O = active
• COc1ccc(-c2[nH]ncc2Nc2cc(OC)c(OC)c(OC)c2)cc1 = inactive
• COc1cc(-c2nc(Nc3nc4ccccc4[nH]3)nc(N)c2C#N)cc(OC)c1OC = inactive
• COc1ccc(OC2=C(C#N)C(=N)N3c4ccccc4Sc4ccccc4C3N2)cc1 (stereo not given) = inactive
• Clc1ccc(Nc2nc(Nc3ccccc3)nc(Nc3ccc(-c4cc(-c5ccc(Cl)cc5)on4)cc3)n2)cc1 = inactive
• COc1ccc2nc(-n3nc(C)cc3C)c(-n3nc(C)cc3C)nc2c1 = inactive
• CCC(=O)Nc1nnc(Cc2ccc(OC)c(OC)c2)s1 = active
• N#C/C(=C\c1ccc[nH]1)c1cc2ccccc2[nH]1 = inactive
• C=C(C)CCCC(C)CC#N (stereo not given) = inactive

Can you look up the reported call for O=C1/C(=C/c2ccc(Cl)cc2)CN(Cc2cn(CCCNc3ccnc4cc(Cl)ccc34)nn2)C/C1=C\c1ccc(Cl)cc1 for me? active

Can you look up the reported call for Cc1ccc(S(=O)(=O)N2CCc3ccc(O)c4c3C2CCc2ccccc2-4)cc1 (stereo not given) for me? inactive
